Value source: the Biogen ADME set (Fang et al. 2023)

Conditions: pH 6.8
Provide the recorded aqueous solubility for the entries that follow.
Numbers only, in µg/mL.

Recorded results for 10 compounds are shown here.
Sample Smiles | Quantity Measured | Readout Number
CCCN1CCn2nc(-c3nc4cc(OC)ccc4[nH]3)cc2C1 | aqueous solubility | 40.1
Cc1cc(C(=O)NC2CCN(c3nc(-c4cccs4)nc4ccccc34)CC2)on1 | aqueous solubility | 0.96
Cc1ccc2c(c1)c(Cn1ccnc1-c1cccc(C)n1)nn2C | aqueous solubility | 32.9
COc1cc(N2CCN(C)CC2)ccc1Nc1ncc2c(n1)N(C)c1ccccc1C(=O)N2 | aqueous solubility | 61.7
Cc1ccc(-n2ccnc2-c2ccoc2)c2cccnc12 | aqueous solubility | 19.9
O=C(c1ccc(-n2cccn2)nc1)N1CCN(c2ccccc2O)CC1 | aqueous solubility | 42.5
Cc1ccc(-c2cnc(N)cn2)c2cccnc12 | aqueous solubility | 31.8
O=C(Nc1ccc(N2CCOCC2)nc1)N1CCc2sccc2C1 | aqueous solubility | 25.8
Clc1cc2ncc(-n3ccnc3)nc2cc1Cl | aqueous solubility | 2.96
CN(C)C(=O)COc1ccc(N)c(F)c1 | aqueous solubility | 43.8

Provide each entry's aqueous solubility from the list below.
1. c1ccc2c(N3CCn4c(nnc4C4CC4)C3)ncnc2c1
2. O=C1NCN(c2ccccc2)C12CCN(CCCOc1ccc(F)cc1)CC2
3. C=CC(=O)N1CCC[C@H](n2c(=O)n(-c3ccc(Oc4ccccc4)cc3)c3c(N)ncnc32)C1

1: 43.4; 2: 50.9; 3: 56.4

====

Conditions: pH 6.8
Outcome: true for aqueous solubility of at least 30 µg/mL; false for anything lower.

Illustrative cases are given below, each with its answer.
Sample Smiles | Cat
CC(C)CNc1nnc(SCc2ccncc2)s1 | true
O=C(Nc1nc2ccccc2[nH]1)c1ccc(-c2ccccc2)cc1 | false
N#CCN1CCCN(Cc2ccc(C#N)cc2)CC1 | true

Could you tell me if the measured aqueous solubility of Cc1cn2c3c(=O)n(Cc4ccccc4Cl)c(=O)n(C)c3nc2n1-c1ccccc1O reaches 30 µg/mL or more?
false

Could you tell me if the measured aqueous solubility of Cc1noc(OCC(=O)N2CCCCCC2)n1 reaches 30 µg/mL or more?
true

====

Quantity Measured: intrinsic clearance, rat liver microsomes (mL/min/kg)
One number for each entry, in mL/min/kg.

Compound | Readout Number
CCCn1ncc2ccc(C3CCCN(CC(=O)N4CCCC4)C3)nc21 (configuration not stated) | 289

Provide each entry's intrinsic clearance, rat liver microsomes from the list below.
1. CCCc1cc(C)nc(O)c1CNC(=O)c1cc(-c2ccc(N3CCN(C(C)C)CC3)nc2)cc2c1cnn2C(C)C
2. COCc1nc(C2CCN(CCO)CC2)no1
3. CCn1nc(CNC(=O)c2nc(C)c[nH]2)c2ccccc21
4. COc1ccc2c(c1)CCCN(C(=O)NCCc1ccccn1)C2

1: 235; 2: 72.4; 3: 236; 4: 1400

Provide each entry's intrinsic clearance, rat liver microsomes from the list below.
1. Cc1cc(C)nc(Nc2ccc(C3CCCN(CC(=O)N4CCCC4)C3)nc2)n1 (configuration not stated)
2. O=C1CCCN1CCc1nc(-c2ccc3[nH]c(=O)oc3c2)cs1
3. CN(Cc1ccc(OC(F)(F)F)cc1)Cc1cn(C)nn1
4. O=C(c1ccc(Cn2nnc(-c3cccc(F)c3)n2)cc1)N1CCCC1
5. Cc1ccc(-c2noc(CCC(=O)N3CCCC3(C)C)n2)cc1F
6. Cc1cc(NC(=O)CN(C)CCOc2ccccc2)on1
7. O=C(CN1CCCc2ccc(F)cc21)N1CCNC1=O
8. CC(=O)N1CCN([C@H]2CCN(C(=O)c3cc4cc(Cl)ccc4o3)CC[C@@H]2O)CC1

118
65.9
290
125
3380
622
61.3
96.9

Provide each entry's intrinsic clearance, rat liver microsomes from the list below.
1. c1cnc(NCc2cnc3ccsc3c2)nc1
2. C=CC(=O)N(C)CCOc1c(N)ncnc1-c1cc(F)cc(NC(=O)c2ccc(C3CC3)cc2F)c1C
3. Cc1ccc(NC(=O)CN2CCCC(c3nc4ccccc4o3)C2)cc1C (configuration not stated)

1: 52.9; 2: 2040; 3: 2610
